Consider the following compounds and their measured activation readings.
# System: Nuclear hormone receptor DAF-12 (Heterodera glycines), GAL4 fusion
# Measurement Notes: H. glycines DAF-12 receptor agonists, primary screen, cell-based, luminescence, HEK293, GAL4 fusion, UAS-luciferase (AID 687014);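 further: 0% = DMSO wells and 100% = sodium butyrate wells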
# Run Conditions: HEK293 GAL4-hgDAF12 UAS-luciferase reporter, agonist luminescence; at 6.8 µM; active compounds read high; normalized to butyrate control
The whole screen tested about 370,000 compounds, of which about 6,800 (1.8%) were called active. For the sample, actives were picked, then their nearest neighbours and some compounds at random.

Compound | Readout Units | activation
CC(=O)c1ccc(OC(=O)N2CCOCC2)cc1 | % | 1.11
COC(=O)C[C@@H]1CC[C@@H]2[C@H](COc3ccc(NC(=O)c4cccc(F)c4)cc3C(=O)N2C)O1 | % | 7.18
N#Cc1c(NC(=O)C2CC(Cl)=CCC2C(=O)O)sc2c1CCCCC2 (stereo not drawn) | % | -1.72
N#Cc1c(NC(=O)C2CCCO2)sc2c1CCCCC2 (stereo not drawn) | % | 15.3
N/C(=N\OC(=O)CC1CCCCC1)c1ccccc1 | % | 0.73
CS(=O)(=O)Nc1ccc(C(=O)N2CCCC2)cc1 | % | -0.04
Cc1csc(NC(=O)CSc2nnc(-c3cccnc3)o2)n1 | % | 4.01
O=S(=O)(NCCc1csc(-c2ccccc2)n1)c1cccnc1 | % | -0.11
COC(=O)[C@]12C[C@H](CC(=O)NCCc3ccccc3OC)C(=O)N(Cc3ccccc3)C1=C[C@H](C(C)C)O[C@@H]2C1CC1 | % | -1.92
CC(=O)Nc1cccc(-c2csc(Nc3cccc(C)n3)n2)c1 | % | 16.6
N#CC(=C1SC=CS1)c1nc(-c2ccccc2)cs1 | % | 8.13
Cc1cc(C)cc(NC(=O)N2CCC(N(C)CCC(C)C)CC2)c1 | % | 3.99
Cc1cccc(Nc2nc(-c3ccccc3)cs2)n1 | % | 18.8
Cc1ccc(C(=O)C(=S)N2CCOCC2)cc1 | % | 3.06
O=C(Nc1cccc(C(=O)O)c1)/C(=C\c1ccccc1)NC(=O)c1ccc(Br)o1 | % | 1.1
NC1=NN(c2cccc(C(=O)O)c2)C(=O)C1 | % | 0.87
CC(=O)NC(c1ccccc1)c1nc(-c2cccc(C(C)C)c2)cs1 (stereo not drawn) | % | 1.94
Cc1cc(NC(=O)CSc2nnnn2-c2ccc(F)cc2)no1 | % | 1.39
Cc1cc(NC(=O)CSCC(=O)NC(C)c2ccccc2)no1 (stereo not drawn) | % | 2.82
COCCN(C(=S)Nc1ccccc1OC)C1CCN(C(C)C)CC1 | % | -3
Cc1ccccc1Nc1nc(-c2cccnc2)cs1 | % | 17.6
CCC(=O)Nc1ccc2c(c1)C(=O)N(C)[C@H]1CC[C@H](CC(=O)NCCOC)O[C@@H]1CO2 | % | -3.11
CNc1cncc(-c2cccc(C(=O)N3CCOCC3)c2)n1 | % | -2.58

----------
# Test system: Nuclear hormone receptor DAF-12 (Heterodera glycines), GAL4 fusion
# Measurement Notes: H. glycines DAF-12 receptor agonists, primary screen, cell-based, luminescence, HEK293, GAL4 fusion, UAS-luciferase (AID 687014);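 further: 0% = DMSO wells and 100% = sodium butyrate wells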
# Run Conditions: HEK293 GAL4-hgDAF12 UAS-luciferase reporter, agonist luminescence; at 6.8 µM; active compounds read high; normalized to butyrate control
Among all 370,000 compounds or so, about 6,800 (1.8%) were called active. The entries come from a sample that favours actives as a whole.

Compound | Readout Units | activation
CCCCNC(=O)C[C@@H]1C(=O)N(CCc2ccc(Cl)cc2)C2=CCCC[C@]21C(=O)OCC | % | -1.77
CCOC(=O)C1=C(C)c2ccccc2OC1C(=O)OCC (configuration not stated) | % | 12.1
Nc1c(C(=O)Nc2ccc3c(c2)OCCO3)nnn1Cc1ccccc1 | % | 11.1
O=C1[C@@H](c2ccccc2)[C@@H](c2ccccc2)N1c1ccccc1 | % | -0.47
O=C(Cc1ccc(Cl)cc1)NC(=S)Nc1ccccc1O | % | 3.46
CNC(=S)N1N=C(c2ccccc2)CC1c1ccc(Br)cc1 (configuration not stated) | % | -1.01
CN(CCO)c1cccc2c1S(=O)(=O)N(Cc1cn(Cc3ccc(C(F)(F)F)cc3)nn1)Cc1ccccc1O2 | % | 4.36
Nc1ccc2nn(-c3ccc(Cl)cc3)nc2c1 | % | 18.1
CC(C)CNc1cccc2c1S(=O)(=O)N[C@H](C)CO2 | % | -0.06
Cc1sc2ncnc(N3CCC(C(=O)NNC(=O)c4ccc(F)cc4)CC3)c2c1C | % | -1.73
COc1cccc(N(CC(=O)NC2CCCC2)C(=O)Cn2nnc(-c3ccc(C)o3)n2)c1 | % | 0.01
COC(=O)[C@]1(Cc2ccccc2)NC=C(C(=O)c2ccccc2)[C@@H]1c1cccc(OC)c1 | % | 1.41
COc1cc(SC)ccc1C(=O)Nc1nc(C)cs1 | % | -15.3
Nc1ncc(-c2cc3ccccc3oc2=O)s1 | % | 11.9
COc1ccc(OC)c(NC(=O)C2CCCN2S(=O)(=O)c2ccc3c(c2)CC(C)N3C(C)=O)c1 (configuration not stated) | % | -2.45
Cc1sc(NC(=O)c2ccc3ncsc3c2)c(C(N)=O)c1C | % | 8.75
Cc1ccc(NC(=O)c2oc3ccccc3c2C)c([N+](=O)[O-])c1 | % | 0.32
O=C(NC(=O)c1ccccc1)Nc1ccccc1O | % | 13.8
O=C(Oc1ccc(-c2nc(-c3ccccn3)no2)cc1)c1ccccc1 | % | 10.9
COC(=O)C1CN(CCc2ccccc2)CCS(=O)(=O)N1Cc1ccc(F)cc1 (configuration not stated) | % | 2.5
CC(=O)N1C[C@@H](CO)[C@@H](N(C)C(=O)C(C)(C)C)C[C@H]1c1ccccc1Br | % | 4.28
O=C(COc1cccc(F)c1)Oc1ccc(C(=O)c2ccccc2)cc1 | % | 3.93
COC(=O)CCC(=O)N1CCCC(CO)(Cc2ccccc2)C1 (configuration not stated) | % | 11.1
O=C(NN1C(=O)C2C3C=CC(C4CC34)C2C1=O)c1ccc(Cl)cc1 (configuration not stated) | % | 0.35
COc1cccc(CNC(=O)[C@H]2CCCN2C(=O)[C@H]2CCCN2C(=O)C2CCCCC2)c1 | % | -1.24
N#CCC[C@H]1CC[C@]2(CCCN(Cc3ccc(Cl)cc3)C2)O1 | % | -2.81
CCN1C(=O)[C@@H]2[C@@H](c3ccc(-c4cccc(Cl)c4)cc3)N3CCC[C@@]3(C(=O)OC)[C@@H]2C1=O | % | -0.28
CC(C)Oc1ccc(/C=C(\NC(=O)/C=C/c2ccco2)C(=O)NCCc2nc3ccccc3[nH]2)cc1 | % | -4.59
O=C(NC(=S)Nc1cccc2c(O)cccc12)c1cccc(Br)c1 | % | 0.96
C=CCN1C(=O)N(Cc2ccccc2)c2ccccc2S1(=O)=O | % | -2.37
Brc1ccc(C2CC(c3ccccc3)=Nc3ccccc3N2)cc1 (configuration not stated) | % | 17.3
Cc1sc2ncnc(N3CCC(C(=O)Nc4nc5ccc(Cl)cc5s4)CC3)c2c1C | % | 12.9
C=CCN1C(=O)[C@@H](CC(=O)NCC2CCCCC2)[C@]2(C(=O)OC)CCCCC=C12 | % | 2.02
CCOC(=O)CC(NC(=O)C1c2ccccc2Oc2ccccc21)c1ccc(C)cc1 (configuration not stated) | % | -2.51
Cc1cc(NS(=O)(=O)c2ccc(NC(=O)CSc3nnc(-c4ccc(C(C)(C)C)cc4)n3Cc3ccco3)cc2)nc(C)n1 | % | 0.44
O=C(Nc1ccc2ccccc2c1[N+](=O)[O-])c1ccccc1 | % | 15.2
COc1ccnc(C(=O)N2CCC(Oc3cccnc3)CC2)c1 | % | -2.68
C=CCn1c(SCC(N)=O)nnc1-c1ccccc1OC | % | -1.84
CC(C)[C@H]1COCCS(=O)(=O)N1Cc1ccccc1-c1cccc2c1sc1ccccc12 | % | 2.06
Nc1nc2cc(Cl)ccc2n1N | % | 0.42
CC[C@H](NC(=O)[C@H](Cc1ccccc1)NC(=O)[C@H]1O[C@@H](n2cnc3c(=O)[nH]c(N)nc32)[C@H](O)[C@@H]1O)c1ccccc1 | % | -0.43
O=C(NCc1ccc(Cl)cc1)C1CCCN(c2nc3ccccc3o2)C1 (configuration not stated) | % | -0.62

----------
# System: Nuclear hormone receptor DAF-12 (Heterodera glycines), GAL4 fusion
# Measurement Notes: H. glycines DAF-12 receptor agonists, primary screen, cell-based, luminescence, HEK293, GAL4 fusion, UAS-luciferase (AID 687014);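 further: 0% = DMSO wells and 100% = sodium butyrate wells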
# Run Conditions: HEK293 GAL4-hgDAF12 UAS-luciferase reporter, agonist luminescence; at 6.8 µM; normalized to butyrate control
About 6,800 (1.8%) of roughly 370,000 compounds were called active.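 Rule for the calls: active = activation above a cutoff set at the mean of all screened compounds plus 3 SD (cut at about 10% in these data); inactive = the rest.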 The full list was thinned out, with actives kept by preference.
Possible outcomes: 1 (yes) = active, 0 (no) = inactive

Compound | Classification
CCC(=O)NC(=Nc1nc2ccccc2s1)NC(=O)CC | 1 (yes)
CSc1ccc(Oc2cccc3c2S(=O)(=O)N([C@H](C)c2ccccc2)C[C@@H](COCc2ccccc2)O3)cc1C | 0 (no)
CC1CCN(Cc2nc(-c3ccc(Cl)cc3)no2)CC1 | 0 (no)
COC(=O)C1CN(Cc2cn(Cc3ccc(F)cc3)nn2)CCS(=O)(=O)N1Cc1ccc(Cl)cc1 (configuration not stated) | 0 (no)
COCc1[nH]nc2c1C(c1ccccc1)N(c1ccccc1)C2=O (configuration not stated) | 0 (no)
COC(=O)C(NC(C)=O)(Nc1nc2c(s1)CCCC2)C(F)(F)F (configuration not stated) | 0 (no)
CCOC(=O)c1cc(S(=O)(=O)NCCc2ccc(OC)c(OC)c2)cn1C | 0 (no)
Nn1c(SCC(=O)Nc2ccc(S(N)(=O)=O)cc2)nnc1-c1n[nH]c2c1CCC2 | 0 (no)
O=C(CSc1nc2sc3c(c2c(=O)n1-c1ccccc1)CCCC3)NN=Cc1ccc(OCc2ccccc2)cc1 | 0 (no)
O=C(CN1CCC(NC(=O)NCc2ccccc2)CC1)Nc1ccc2c(c1)OCCO2 | 0 (no)
Cc1cc(Cl)ccc1OCc1nc(-c2ccncc2)no1 | 1 (yes)
Cn1nc(-c2ccccc2)c(CSc2cccc(Cl)c2)c1Cl | 0 (no)
COc1ccc(C=C(C#N)C#N)c(CSc2ccccn2)c1 | 0 (no)
COc1ccc2nc(-c3ccccn3)ccc2c1 | 1 (yes)
O=C(Nc1cc(-c2nc3ncccc3o2)ccc1Cl)c1ccco1 | 0 (no)
COC(=O)c1cc2c(c3c4ccccc4n(S(=O)(=O)c4cccc(C)c4)c13)C(=O)N(Cc1ccccc1)C2 | 0 (no)
O=C(Nc1ccc2oc(-c3ccccc3F)nc2c1)c1ccco1 | 1 (yes)
CC(c1ccccn1)N(CCN(C)C)C(=S)Nc1ccccc1F (configuration not stated) | 0 (no)
O=S1(=O)c2ccc(Br)cc2OC[C@@H](Cc2ccccc2)N1Cc1cn(Cc2ccco2)nn1 | 0 (no)
Fc1ccc2nc(Nc3nc4c(s3)CCCC4)sc2c1 | 1 (yes)
CCC(C)(C)NC(=O)C(c1ccc(O)cc1)N(C(=O)Cn1nnc2ccccc21)c1ccc(NC(C)=O)cc1 (configuration not stated) | 0 (no)
COc1ccc2cc(CCl)c(Cl)nc2c1 | 0 (no)
